Recorded values, source patent US4554289A.

Consider the following molecules and their measured Thickness of Edema (Mean Value ± Standard Error) readings.
System: cellular immunity (delayed type hypersensitivity to sheep erythrocytes)
Assay: Delayed type hypersensitivity (DTH) to sheep erythrocytes, hind paw edema (cellular immunity)
Assay type: in vivo, CDF1 strain female mice
Conditions: 50 μg/kg intraperitoneally, hind paw, 24 hours after challenge
Your answer should be a plain number; it is taken to be in × 0.1 mm.

These solved cases illustrate the format of a correct answer.
NC(=O)C(O)C1NC(=O)C(N)Cc2ccc(O)c(c2)Oc2ccc(cc2)CC(C(=O)O)NC1=O (stereo not drawn) | 13.5
COc1ccc2cc1Oc1ccc(cc1)CC(C(=O)O)NC(=O)C(C(O)C(=O)O)NC(=O)C(N)C2 (stereo not drawn) | 8.5
COc1ccc2cc1Oc1ccc(cc1)CC(C(=O)O)NC(=O)C(C(O)C(N)=O)NC(=O)C(N)C2 (stereo not drawn) | 11.7
COc1ccc2cc1Oc1ccc(cc1)CC(CO)NC(=O)C(C(O)CO)NC(=O)C(N)C2 (stereo not drawn) | 7.8
NC1Cc2ccc(O)c(c2)Oc2ccc(cc2)CC(C(=O)O)NC(=O)C(C(O)C(=O)O)NC1=O (stereo not drawn) | 9.1

Challenge: If you can, please state the reported Thickness of Edema (Mean Value ± Standard Error) value of COc1ccc2cc1Oc1ccc(cc1)CC(C(N)=O)NC(=O)C(C(O)C(N)=O)NC(=O)C(N)C2 (stereo not drawn) .
Response given: 8.4
